- Test system: UACC-62 melanoma
- ASSAY_INFO: NCI tumour cell line growth inhibition, 48 h; in the data active means GI50 below about 0.43 µM; inactive means the rest
Choose one outcome from this list and give only that: active, inactive

> print(dat)
                            chemical.string  label.class
1  [N-]=[N+]=NCCCn1c2c(c3cc4c(cc3c1=O)OCO4)C(=O)c1ccccc1-2     inactive

Problem: Short answer needed: outcome of this test for "CC1=C2O[C@]3(O)C=C2C(=C(O)C1=O)[C@@H]1O[C@H](CC[C@H](C)/C=C(\C)C[C@@H](C)C[C@@H]3C)[C@H](C)[C@H](O)[C@H]1C" ?
Solution: active

Problem: Short answer needed: outcome of this test for "O=c1c2cc(F)ccc2sc2c(Nc3ccncc3)nc3ccccc3c12" ?
Solution: inactive

Problem: Short answer needed: outcome of this test for "NCCCOc1cc2ccccc2cc1C(=O)NCCOc1nc2ccccc2cc1C(=O)Nc1ccc(Cl)cc1O" ?
Solution: active

Values from PubChem BioAssay (NCI)
